A collection of compounds and their measured pIC50
target: Transcription factor p65 (Human, UniProt Q04206); experiment: Inhibition of TNF-alpha-stimulated RELA translocation from cytoplasm to nucleus in human HeLa cells preincubated for 4.5 hrs followed by TNF-alpha stimulation measured after 30 mins
Sequence (Q04206 whole entry): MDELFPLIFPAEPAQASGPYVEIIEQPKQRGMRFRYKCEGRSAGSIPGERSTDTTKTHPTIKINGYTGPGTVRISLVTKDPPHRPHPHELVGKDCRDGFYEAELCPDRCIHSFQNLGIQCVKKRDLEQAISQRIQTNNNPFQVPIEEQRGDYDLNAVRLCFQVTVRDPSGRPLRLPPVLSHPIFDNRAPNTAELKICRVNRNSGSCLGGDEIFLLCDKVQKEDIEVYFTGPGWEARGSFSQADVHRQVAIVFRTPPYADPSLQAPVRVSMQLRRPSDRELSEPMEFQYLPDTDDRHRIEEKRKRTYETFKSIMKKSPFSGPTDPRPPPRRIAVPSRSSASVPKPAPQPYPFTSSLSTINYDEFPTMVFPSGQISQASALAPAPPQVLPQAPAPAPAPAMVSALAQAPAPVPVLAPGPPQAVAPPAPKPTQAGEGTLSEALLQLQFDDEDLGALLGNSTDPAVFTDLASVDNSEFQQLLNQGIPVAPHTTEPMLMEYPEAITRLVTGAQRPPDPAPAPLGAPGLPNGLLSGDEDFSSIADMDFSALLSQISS
pIC50: −log10 of the molar value.

CNC(=O)c1c(C(N)=O)nc2n1CCOc1ccc(C#C[C@@](C)(O)c3cc(C)on3)cc1-2 [US9034866, 96] ... < 4.70
Cc1cc([C@](C)(O)C#Cc2cc3c(cc2F)OCCn2cc(C(N)=O)nc2-3)no1 [US9034866, 6] ... < 4.70

Switching to the query record.
Req: # returns recorded pIC50 (system: Transcription factor p65 (Human, UniProt Q04206)) for Cc1cc([C@](C)(O)C#Cc2cc3c(cc2F)C2CC(C2)n2cc(C(N)=O)nc2-3)no1 [US9034866, 129]
Resp: < 4.70

Origin of measurements: BindingDB's records for doi:10.1021/acs.jmedchem.6b01363
